- System: HT29 colon
- assay comment: NCI tumour cell line growth inhibition, 48 h; in the data active = GI50 below about 0.43 µM; inactive = the rest
Answer with one of the outcomes given here: active, inactive

Illustrative cases are given below, each with its answer.
Recorded test call requested for O=C(CCCCCCCn1cc(-c2cccnc2)nn1)Nc1ccccc1-c1ccccc1
inactive

Recorded test call requested for O=C1/C=C/[C@@H](O)[C@@H]2C[C@@H](O)C[C@H]2/C=C/CCC[C@H](CCc2ccc(C(F)(F)F)cc2)O1
active

Recorded test call requested for N=C(N)/N=C(\N)c1c(-c2cc(O)ccc2O)nc2sccn12
inactive

Recorded test call requested for Cc1nc2ccccn2c1NC(=O)NNC(=S)Nc1ccc(Br)cc1
inactive

Recorded test call requested for C=C(C)[C@@H]1CC[C@]2(C(N)=O)CC[C@]3(C)[C@H](CC[C@@H]4[C@@]5(C)CC[C@H](O)C(C)(C)[C@@H]5CC[C@]43C)[C@@H]12
inactive

Further cases:
Recorded test call requested for CCN(CC)c1ccc(C2CC(c3cc(OC)c(OC)c(OC)c3)=NN2)cc1 (stereo unspecified)
active

Recorded test call requested for CN(C)CCCNC(=O)c1ccc2oc3cc4ccccc4c(=O)n3c2c1
inactive

Recorded test call requested for COC(=O)[C@H]1C(=O)[C@@]2(C)[C@H]([C@H](OC(=O)c3ccccc3)[C@]3(O)C[C@H](OC(=O)[C@H](O)[C@@H](NC(=O)c4ccc(F)cc4)c4ccccc4)C(C)=C1C3(C)C)[C@]1(OC(C)=O)CO[C@@H]1C[C@@H]2O
active

Recorded test call requested for COc1ccc(-c2nsc3c2NC(=O)CC3c2ccc(F)cc2)cc1 (stereo unspecified)
inactive

Recorded test call requested for COc1ccc(CCN2CCCN3C2=Nc2ccccc2S3(=O)=O)cc1
active

Recorded test call requested for CNC(=O)c1c(NC(=O)c2ccc(C(F)(F)F)cc2)sc2c1CCC(=O)C2
inactive

Recorded test call requested for Cc1cccc(-c2nn3c(c2-c2ccnc4ccc(C(N)=O)cc24)CCC3)n1
inactive

Recorded test call requested for O=C(N/N=C/c1ccccc1O)C(O)(c1ccccc1)c1ccccc1
inactive

Recorded test call requested for CC(C)CCSC1=CC(=O)c2ccccc2C1=O
inactive

Recorded test call requested for COC(=O)C(Cc1cnc[nH]1)NC(=O)CNC(=O)CCCn1c(=O)c2c3ccccc3n(C)c2n2nnc(-c3ccccc3)c12 (stereo unspecified)
inactive

Recorded test call requested for CCOC(=O)C(Cc1c[nH]c2ccc([N+](=O)[O-])cc12)(NC(C)=O)C(=O)OCC
inactive

Recorded test call requested for NC(=O)C1c2ccccc2C=Cc2ccccc21
inactive

Recorded test call requested for COc1c2c3ccccc3nc-2n(C)c2ccccc12
inactive

Recorded test call requested for C=CC(=O)N1C/C(=C\c2ccccc2)C(=O)/C(=C/c2ccccc2)C1
inactive

Recorded test call requested for C/C1=C/C(=O)O[C@@H]2C[C@@H](CC[C@H](C)/C=C\C=C\CC1)O[C@@](O)([C@@H]1CSC(=O)N1CO)C2
active

Recorded test call requested for CCN1C(=O)N(CC)C2C1NN=c1s/c(=C\c3ccccc3F)c(=O)n12 (stereo unspecified)
active

The reported numbers originate from PubChem BioAssay (NCI).
